B1: TPR t1 (parent)
chain: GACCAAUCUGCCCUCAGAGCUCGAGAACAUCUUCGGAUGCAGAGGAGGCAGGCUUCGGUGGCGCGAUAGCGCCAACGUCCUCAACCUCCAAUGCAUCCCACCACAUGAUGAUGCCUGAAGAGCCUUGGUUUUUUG

# Variants of: B1
# assay_remarks: polymerase ribozyme fitness, log enrichment relative to wild type (log ratio); higher = more active; in vitro selection for triplet polymerase activity
Quick rule: polymerase ribozyme fitness (log ratio) of at least -3 means t, below that means f.

{"columns": ["change", "discrete_label"],
 "data": [
  ["U9G U59G", "t"],
  ["A5G C12G G42U", "t"],
  ["U21A C62U A119U", "t"],
  ["C11U C22G A111G G122U U129C", "f"],
  ["U9G A29U G39C", "f"],
  ["C13A C89A", "f"],
  ["U7A G61C", "t"],
  ["C11G U59G U92A C114U A121C G128U", "f"],
  ["U55A U78G C82A G110A", "t"],
  ["A41C C72A", "t"],
  ["A5G G77U G113U G122C", "f"],
  ["G52A C70U G120A U132A", "t"],
  ["C8U A46C G63U U106C", "t"],
  ["C15G C70G", "f"],
  ["C4G A24C A100C U112A U116G", "f"],
  ["C56G U109A G113C", "f"],
  ["A37G G71U", "t"]
]}
